molecular target: E. coli RecBCD (Escherichia coli, UniProt P04993+P07648+P08394); experiment: Purified RecBCD nuclease (ds exonuclease) assay; format: biochemical; conditions: purified enzyme; read-out: Nuclease IC50, E.coli RecBCD
Sequence (P04993 whole entry): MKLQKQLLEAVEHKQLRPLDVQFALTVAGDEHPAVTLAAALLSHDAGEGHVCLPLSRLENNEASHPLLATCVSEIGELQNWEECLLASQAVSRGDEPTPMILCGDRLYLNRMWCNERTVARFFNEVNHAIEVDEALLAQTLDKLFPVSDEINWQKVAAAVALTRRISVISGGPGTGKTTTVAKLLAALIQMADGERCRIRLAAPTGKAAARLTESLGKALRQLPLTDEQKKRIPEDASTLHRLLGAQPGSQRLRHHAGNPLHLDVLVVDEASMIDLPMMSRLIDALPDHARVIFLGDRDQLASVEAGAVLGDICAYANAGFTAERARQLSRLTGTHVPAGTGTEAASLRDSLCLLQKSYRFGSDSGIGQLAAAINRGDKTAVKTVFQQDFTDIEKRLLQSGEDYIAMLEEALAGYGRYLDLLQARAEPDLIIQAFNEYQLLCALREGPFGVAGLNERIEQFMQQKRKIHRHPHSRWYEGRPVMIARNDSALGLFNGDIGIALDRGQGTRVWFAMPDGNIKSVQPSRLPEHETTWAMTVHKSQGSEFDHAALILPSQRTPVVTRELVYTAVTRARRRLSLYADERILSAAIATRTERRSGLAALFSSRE
Sequence (P08394 whole entry): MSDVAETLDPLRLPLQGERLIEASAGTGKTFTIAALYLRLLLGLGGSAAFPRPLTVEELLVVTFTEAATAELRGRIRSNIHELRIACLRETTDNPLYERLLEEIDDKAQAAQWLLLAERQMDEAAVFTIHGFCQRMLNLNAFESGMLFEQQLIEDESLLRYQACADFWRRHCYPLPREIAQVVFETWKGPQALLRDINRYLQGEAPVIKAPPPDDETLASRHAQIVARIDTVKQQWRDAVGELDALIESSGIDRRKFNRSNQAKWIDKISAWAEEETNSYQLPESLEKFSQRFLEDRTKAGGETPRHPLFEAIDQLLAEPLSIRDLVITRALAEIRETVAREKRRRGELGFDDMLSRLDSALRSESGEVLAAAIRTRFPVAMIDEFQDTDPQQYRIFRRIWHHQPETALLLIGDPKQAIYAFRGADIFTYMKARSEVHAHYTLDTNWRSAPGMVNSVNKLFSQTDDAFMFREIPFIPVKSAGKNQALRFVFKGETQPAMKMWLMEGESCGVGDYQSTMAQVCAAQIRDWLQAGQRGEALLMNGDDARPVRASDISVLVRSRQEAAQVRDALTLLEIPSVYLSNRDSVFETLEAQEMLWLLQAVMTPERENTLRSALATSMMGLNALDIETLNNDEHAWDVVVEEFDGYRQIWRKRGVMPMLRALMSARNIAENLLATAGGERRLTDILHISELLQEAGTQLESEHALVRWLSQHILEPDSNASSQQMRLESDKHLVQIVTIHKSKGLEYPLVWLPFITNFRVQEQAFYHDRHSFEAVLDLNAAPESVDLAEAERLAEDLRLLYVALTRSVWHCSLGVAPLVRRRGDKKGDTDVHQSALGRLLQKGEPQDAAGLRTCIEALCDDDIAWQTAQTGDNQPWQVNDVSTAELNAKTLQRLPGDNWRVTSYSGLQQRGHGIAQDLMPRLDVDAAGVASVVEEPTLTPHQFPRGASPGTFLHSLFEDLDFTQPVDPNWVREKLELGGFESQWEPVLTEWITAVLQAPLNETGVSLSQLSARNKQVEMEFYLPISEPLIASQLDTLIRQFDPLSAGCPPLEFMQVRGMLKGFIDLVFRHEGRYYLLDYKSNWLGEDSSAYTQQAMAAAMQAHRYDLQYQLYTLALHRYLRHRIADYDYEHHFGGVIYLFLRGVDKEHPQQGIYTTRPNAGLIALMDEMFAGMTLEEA
Sequence (P07648 whole entry): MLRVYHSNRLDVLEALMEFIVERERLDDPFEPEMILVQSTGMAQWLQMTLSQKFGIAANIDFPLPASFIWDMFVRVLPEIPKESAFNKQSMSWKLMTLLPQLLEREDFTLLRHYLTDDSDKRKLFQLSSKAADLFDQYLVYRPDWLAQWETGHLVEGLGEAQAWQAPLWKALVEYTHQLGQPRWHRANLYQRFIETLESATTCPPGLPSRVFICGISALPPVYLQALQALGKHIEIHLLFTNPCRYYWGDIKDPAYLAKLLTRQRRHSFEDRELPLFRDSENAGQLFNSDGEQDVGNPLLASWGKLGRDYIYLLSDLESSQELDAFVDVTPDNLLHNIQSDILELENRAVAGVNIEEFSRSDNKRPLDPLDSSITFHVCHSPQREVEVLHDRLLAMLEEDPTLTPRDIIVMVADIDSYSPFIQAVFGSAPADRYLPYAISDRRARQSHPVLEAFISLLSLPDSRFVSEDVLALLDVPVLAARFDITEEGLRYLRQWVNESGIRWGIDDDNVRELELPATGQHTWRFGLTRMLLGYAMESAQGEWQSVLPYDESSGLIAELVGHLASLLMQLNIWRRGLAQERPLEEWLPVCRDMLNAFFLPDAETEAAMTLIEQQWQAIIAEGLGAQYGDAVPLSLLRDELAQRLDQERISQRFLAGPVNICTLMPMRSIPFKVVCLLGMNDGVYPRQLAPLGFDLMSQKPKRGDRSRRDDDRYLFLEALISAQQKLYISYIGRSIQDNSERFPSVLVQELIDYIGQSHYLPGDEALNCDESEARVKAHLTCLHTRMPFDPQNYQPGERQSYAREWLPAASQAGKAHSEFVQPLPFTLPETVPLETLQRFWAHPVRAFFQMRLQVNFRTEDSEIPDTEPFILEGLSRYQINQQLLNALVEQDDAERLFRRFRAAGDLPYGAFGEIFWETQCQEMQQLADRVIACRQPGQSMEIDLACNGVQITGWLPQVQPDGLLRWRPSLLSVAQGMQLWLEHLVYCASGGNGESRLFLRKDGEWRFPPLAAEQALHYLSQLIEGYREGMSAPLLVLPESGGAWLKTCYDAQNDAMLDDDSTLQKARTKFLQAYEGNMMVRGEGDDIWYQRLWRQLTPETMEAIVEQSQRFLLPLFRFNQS
Could you please report measured pIC50 for the items listed next?
Scale for pIC50: -log10 of concentration given in mol/L; no unit attached.

Entry `O=C(O)c1cn(C2CC2)c2cc(N3CCN(C(=S)Nc4cccc(C(F)(F)F)c4)CC3)c(F)cc2c1=O` has what pIC50?
5.00

Entry `CCn1cc(C(=O)O)c(=O)c2cc(F)c(N3CCN(C(=S)Nc4ccc(C(F)(F)F)cc4)CC3)cc21` has what pIC50?
5.43

Entry COc1c(N2CCN(C(=S)Nc3ccccc3)C(C)C2)c(F)cc2c(=O)c(C(=O)O)cn(C3CC3)c12 (stereo not shown) has what pIC50?
5.92

Entry `O=C(O)c1cn(C2CC2)c2cc(N3CCN(C(=S)Nc4ccc(C(F)(F)F)cc4)CC3)c(F)cc2c1=O` has what pIC50?
5.52

Entry `CCn1cc(C(=O)O)c(=O)c2cnc(N3CCN(C(=S)Nc4cccc(C(F)(F)F)c4)CC3)nc21` has what pIC50?
5.34

Entry `CCn1cc(C(=O)O)c(=O)c2cc(F)c(N3CCN(C(=S)Nc4ccccc4C(F)(F)F)CC3)cc21` has what pIC50?
4.59

Entry `CCn1cc(C(=O)O)c(=O)c2cc(F)c(N3CCN(C(=S)Nc4cccc(C(F)(F)F)c4)CC3)cc21` has what pIC50?
5.49

Where do these numbers come from? They come from patent US20150126519A1.
